Here the recorded growth is given for each entry.
# Test system: SW-620 colon
# Experimental Protocol: NCI-60 one-dose screen, 48 h (100 = growth as untreated, 0 = no growth, -100 = all killed)
# Condition Details: 10 µM unless noted
This is part of a sample that, as a whole, favours compounds with a hit. Of some 83,000 tested, about 20% had one in any assay.
Metric: growth (%)

1) COc1ccc(C2C(C#N)=C(N)Oc3c2ccc2ccccc32)cc1 (stereo unspecified)	19
2) c1ccc(-c2nc(N3CCNCC3)c3nc(-c4ccccc4)oc3n2)cc1	-78.8
3) CCN(CC)c1ccc(CNc2ccnc3ccccc23)cc1	70.8
4) O=C1Nc2ccc(Cl)cc2C12Nc1cc(Cl)ccc1S2 (stereo unspecified)	98.9
5) COc1ccc(S(=O)(=O)NCCCNc2nccc(-n3ccc4cccnc43)n2)cc1	113
6) O=C(O)c1nc(-c2ccccc2)oc1N1CCOCC1	96
7) O=[N+]([O-])c1cc(S(=O)(=O)Oc2ccccc2)ccc1Cl	23.5
8) CC1(C)C(=O)/C(=C\c2ccc(C(F)(F)F)cc2)C[C@]2(C)[C@H]3CC[C@@H]4[C@H]5[C@H](C(=O)/C=C/c6ccc(C(F)(F)F)cc6)CC[C@]5(CO)CC[C@@]4(C)[C@]3(C)CC[C@@H]12	98.3
9) CN1CCN(Cc2ccc(NC(=O)c3cncc(C#Cc4cnc(N)c5cnccc45)c3)cc2C(F)(F)F)CC1	-10.9
10) C=C(C)[C@@H]1C[C@H](O)Cc2cc(F)ccc2N1	91.9
11) Cc1cc(C(C)(C)C)ccc1S	98.4
12) Cc1cc(C2=NNC(=O)Cc3cc4c(cc32)OCCO4)cc(C)c1N	26.5
13) Cc1nn(-c2ccc([N+](=O)[O-])cc2)c2ncnc(NCCc3ccccc3)c12	99.4
14) OCc1ncc(-c2ccccc2)s1	106
15) Cc1cccc(/C=N/Nc2cc(C)c3cccc(C)c3n2)n1	94.7
16) COc1ccc(N=Cc2c(O)ccc3c2oc2cc(Cl)c(O)c(Cl)c23)cc1	99.2
17) CCOC(=O)C1C(=O)C=C(c2ccc(OC)cc2)CC1c1sc(N(C)Cc2ccccc2)nc1Cl (stereo unspecified)	82.9
18) CC(=O)Oc1csc(N(C(C)=O)c2cc(C(=O)O)cc(C(=O)O)c2)n1	96.1
19) COc1ccc(-c2cnnn2-c2nonc2-n2cccc2)cc1OC	27
20) C=C1CC2(OC1=O)C(=O)N(CCCN1C(=O)C3(CC(=C)C(=O)O3)c3ccccc31)c1ccccc12 (stereo unspecified)	-67.4
21) COc1ccc(Cn2cc3c(c2-c2cc(OC)c(OC)c(OC)c2)CCc2cnoc2-3)cc1	29.8

Attribution: PubChem BioAssay (NCI)
